- Tested on: Trypanosoma brucei
- assay summary: DNDI: Inhibition of Human African Trypanosomiasis, SBRI 427, in vitro at 2 ug.mL-1
- Type: functional
Among all 4,400 compounds or so, about 390 (8.9%) showed an effect of 50% or more. The sample holds strong results, similar compounds and a random draw of the others, so the mix is not that of the screen.
measured attribute: % inhibition (%)
Lab book: enter the figure in %, no units written.

// solved cases for % inhibition follow
{"molecule": "COc1ccc(Oc2nc(C)ccc2/C(=N/O)N2CC2C)cc1 (stereo unspecified)", "unit abbrev": "%", "% inhibition": 14}
{"molecule": "CC1CN1/C(=N\\O)c1ccc(Oc2ccc3ccccc3c2)nc1 (stereo unspecified)", "unit abbrev": "%", "% inhibition": 8}
{"molecule": "Cc1ccc(/C(=N/O)N2CC2C)c(Oc2cccc(C(C)C)c2)n1 (stereo unspecified)", "unit abbrev": "%", "% inhibition": -6}
{"molecule": "COc1ccc(OC)c(CCNCc2coc(-c3ccc(C)cc3)n2)c1", "unit abbrev": "%", "% inhibition": 7}
{"molecule": "Cc1cc(C)cc(Oc2ccc(/C(=N/O)N3CC3C)cn2)c1 (stereo unspecified)", "unit abbrev": "%", "% inhibition": 3}

Okay, next one:
Exam item: // returns reported % inhibition for input COc1ccc(OC)c(CCNCc2coc(-c3ccc(C(C)(C)C)cc3)n2)c1
Marked response: 74

Source: ChEMBL document CHEMBL1857833
